experiment: Selectivity index, ratio of […] for toxicity in human BEAS2B cells to MIC50 for antifungal activity against Aspergillus terreus ATCC MYA-3633; type: cell-based; details: BEAS-2B cells, read-out: Selectivity Index
reported.property: selectivity ratio
Respond numerically, and do not add a unit to the figure.

Example entries begin here.
CCCCCC(O)(Cn1cncn1)c1ccc(Cl)cc1Cl (stereo unspecified) : 8
CCCCCCC(O)(Cn1cncn1)c1ccccc1Cl (stereo unspecified) : 65
CCCCC(O)(Cn1cncn1)c1ccc(F)cc1F (stereo unspecified) : 2
CCCCCC(O)(Cn1cncn1)c1ccc(F)cc1F (stereo unspecified) : 1
CCCCCCC(O)(Cn1cncn1)c1ccc(F)cc1F (stereo unspecified) : 4
CCCCC(O)(Cn1cncn1)c1ccc(Cl)cc1Cl (stereo unspecified) [HEXACONAZOLE] : 32

Reported selectivity ratio ( CCCCCCC(O)(Cn1cncn1)c1ccc(Cl)cc1Cl (stereo unspecified) ) = 7

Reported selectivity ratio ( CCCCCCC(O)(Cn1cncn1)c1ccc(F)cc1 (stereo unspecified) ) = 2

Reported selectivity ratio ( CCCCCCCCC(O)(Cn1cncn1)c1ccc(F)cc1F (stereo unspecified) ) = 2

Reported selectivity ratio ( CCCCCCC(O)(Cn1cncn1)c1ccc(Cl)cc1 (stereo unspecified) ) = 2

Reported selectivity ratio ( CCCCCC(O)(Cn1cncn1)c1ccc(F)cc1 (stereo unspecified) ) = 1

Reported selectivity ratio ( CCCCCCC(O)(Cn1cncn1)c1ccccc1F (stereo unspecified) ) = 8

Reported selectivity ratio ( CCCC(O)(Cn1cncn1)c1ccc(Cl)cc1Cl (stereo unspecified) ) = 8

Reported selectivity ratio ( CCCCCC(O)(Cn1cncn1)c1ccccc1F (stereo unspecified) ) = 8

Reported selectivity ratio ( CCCCCC(O)(Cn1cncn1)c1ccc(Cl)cc1 (stereo unspecified) ) = 1

Reported selectivity ratio ( CCCCCC(O)(Cn1cncn1)c1ccccc1Cl (stereo unspecified) ) = 2

Hello, the source for this data is ChEMBL document CHEMBL4265871, in case you need it.
